- target.or.system: Short transient receptor potential channel 6 (Mus musculus) (UniProt Q61143)
- Sequence (Q61143 whole entry, looked up): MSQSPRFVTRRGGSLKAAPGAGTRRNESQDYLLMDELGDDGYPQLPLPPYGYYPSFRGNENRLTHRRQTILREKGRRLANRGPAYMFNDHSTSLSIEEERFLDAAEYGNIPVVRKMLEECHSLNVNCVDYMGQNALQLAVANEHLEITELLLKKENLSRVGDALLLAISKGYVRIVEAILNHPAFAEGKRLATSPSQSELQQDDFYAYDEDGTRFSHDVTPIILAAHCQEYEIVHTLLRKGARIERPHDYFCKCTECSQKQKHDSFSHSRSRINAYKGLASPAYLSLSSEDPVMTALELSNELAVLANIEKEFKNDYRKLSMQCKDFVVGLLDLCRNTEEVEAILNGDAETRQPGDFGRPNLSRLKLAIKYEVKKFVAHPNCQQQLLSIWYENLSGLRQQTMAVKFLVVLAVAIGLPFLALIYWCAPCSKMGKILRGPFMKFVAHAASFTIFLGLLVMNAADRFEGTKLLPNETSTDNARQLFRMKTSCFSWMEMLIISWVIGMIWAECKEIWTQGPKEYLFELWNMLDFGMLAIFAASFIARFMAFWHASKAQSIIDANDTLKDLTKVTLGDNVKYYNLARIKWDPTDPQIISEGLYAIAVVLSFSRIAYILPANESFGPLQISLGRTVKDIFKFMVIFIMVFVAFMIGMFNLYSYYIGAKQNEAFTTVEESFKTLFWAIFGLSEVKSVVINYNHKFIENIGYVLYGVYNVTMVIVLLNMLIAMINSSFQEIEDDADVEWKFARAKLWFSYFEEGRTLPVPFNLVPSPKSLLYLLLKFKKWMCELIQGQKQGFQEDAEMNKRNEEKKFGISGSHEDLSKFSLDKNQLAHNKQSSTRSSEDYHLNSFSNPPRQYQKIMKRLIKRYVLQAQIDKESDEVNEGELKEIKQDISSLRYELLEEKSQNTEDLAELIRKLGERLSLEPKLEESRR
- experiment: mouse TRPC6 channel activators, primary screen, cell-based, HEK293, membrane potential dye (AID 2550);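 further: higher score means more depolarization so channel activation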
- test.context: HEK293-TRPC6 membrane potential dye fluorescence, at 10 µM
The whole screen tested about 310,000 compounds, of which about 380 (0.12%) were called active.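 How the source made its calls: active means B-score of the integrated fluorescence ratio above library mean plus 3 SD, and starting fluorescence ratio within library mean plus 5 SD; inactive means the rest.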 The sample holds actives, similar compounds and a random draw of the others, so the mix is not that of the screen.
Choose the fitting class; nothing outside true = active, false = inactive is accepted.

Past entries and their recorded results:
CCCCn1c(O)c(N=NC(=O)Cn2c(C(F)(F)F)nc3ccccc32)c2ccccc21; false
CCOc1ccc(NC(=O)CN(C)CC(=O)Nc2cccc(Cl)c2C)cc1OCC; false
Cn1c(SCC(=O)Nc2ccc(Cl)cc2)nc(O)cc1=O; false
CCc1ccc2oc(=O)cc(CN3CCCCC3C)c2c1 (stereo not given); false

Could you now consider this next compound?
## Task GET /call?item= "COC(=O)c1ccc(NC(=O)CSc2nnc(C3CC3)n2C)cc1" returns the recorded outcome of this test.
## Result false

###

- target.or.system: Short transient receptor potential channel 6 (Mus musculus) (UniProt Q61143)
- experiment: mouse TRPC6 channel activators, primary screen, cell-based, HEK293, membrane potential dye (AID 2550);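 further: higher score means more depolarization so channel activation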
- test.context: HEK293-TRPC6 membrane potential dye fluorescence, at 10 µM
In all, about 310,000 compounds went through this assay and about 380 (0.12%) were called active.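 Rule for the calls: active = B-score of the integrated fluorescence ratio above library mean plus 3 SD, and starting fluorescence ratio within library mean plus 5 SD; inactive = the rest.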 The sample as a whole holds a higher share of actives than the screen did.
Choose the fitting class; nothing outside 1 for active, 0 for inactive is accepted.

Past entries and their recorded results:
CCOc1ccc(CN(C)C(=O)c2ccc(=O)[nH]c2)cc1; 0
CN1CCN(/N=C/c2ccc(-c3ccc([N+](=O)[O-])cc3)o2)CC1; 1
CCOc1ccc(NC(=O)C2CCN(C(=O)N3CCOc4ccccc43)CC2)cc1; 0
O=C1NC(=O)C(c2ccc(Cl)cc2)N1 (stereo not drawn); 0
Cc1nnc(NC(=O)Cn2c(=O)sc3ccccc32)s1; 0
CC(=O)c1c(N2CCN(c3ccc(F)cc3)CC2)nc(=S)n(-c2ccccc2)c1C; 0

## Task GET /call?item= "O=S(=O)(c1cccc2nonc12)N1CCN(c2cccc(Cl)c2)CC1" returns the recorded outcome of this test.
## Result 0

## Task GET /call?item= "CN1CCN(/N=C/c2ccc(C#N)cc2)CC1" returns the recorded outcome of this test.
## Result 0

## Task GET /call?item= "O=C(COc1ccccc1)Nc1nonc1NC(=O)COc1ccccc1" returns the recorded outcome of this test.
## Result 0

## Task GET /call?item= COc1c(O)ccc2c1CN1CCc3cc4c(cc3C1C2)OCO4 (stereo not drawn) returns the recorded outcome of this test.
## Result 0

###

- target.or.system: Short transient receptor potential channel 6 (Mus musculus) (UniProt Q61143)
- experiment: mouse TRPC6 channel activators, primary screen, cell-based, HEK293, membrane potential dye (AID 2550);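 further: higher score means more depolarization so channel activation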
- test.context: HEK293-TRPC6 membrane potential dye fluorescence, at 10 µM
The campaign covered roughly 310,000 compounds. About 380 (0.12%) were called active.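 How the source made its calls: active means B-score of the integrated fluorescence ratio above library mean plus 3 SD, and starting fluorescence ratio within library mean plus 5 SD; inactive means the rest.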 The sample as a whole holds a higher share of actives than the screen did.
Choose the fitting class; nothing outside active, inactive is accepted.

Past entries and their recorded results:
O=C1CSC2=NCN(c3ccccc3)CN12; inactive
CCOC(=O)c1sc2nc(CSCC(=O)OCc3ccc(C(=O)OC)o3)[nH]c(=O)c2c1C; active
CCOC(=O)c1sc2nc(CSc3ccccc3)[nH]c(=O)c2c1C; inactive
Cc1ccc(NC(=O)CN2C(=O)NC(C)(c3ccc(Cl)cc3)C2=O)c(Br)c1 (centres undefined); inactive
CN1C(CC(=O)Nc2ccc(Br)cc2)c2ccccc2CC1(C)C (centres undefined); inactive
Cc1nn(-c2ccccc2)c2sc(C(=O)N(Cc3ccco3)C(C)C(=O)NC(C)(C)C)cc12 (centres undefined); inactive

## Task GET /call?item= "O=C(N/N=C/c1ccc(Cl)c(Cl)c1)c1ccc2nc[nH]c2c1" returns the recorded outcome of this test.
## Result inactive

## Task GET /call?item= "CCCCn1c(N)c(N(CCOC)C(=O)c2cccc(OCc3ccccc3)c2)c(=O)[nH]c1=O" returns the recorded outcome of this test.
## Result inactive
